test system: Tetranychus urticae; experiment: Tetranychus urticae (two-spotted spider mite) bean leaf disc test; type: in vivo; details: foliar, 192 h, 200 ppm sprayed on bean leaf discs, mixed ages, 8 days, egg, larval and adult mortality
Parameter measured: pest or weed control at 200 ppm

Compound structure | pest or weed control at 200 ppm
Cn1nc(C(F)(F)C(F)(F)F)c(C(F)(F)F)c1NC(=O)c1cccc(NC(=O)c2ccc(C#N)cc2)c1F | ≥ 80%
Cc1cc(F)ccc1C(=O)Nc1cc(C(=O)Nc2c(C(F)(F)F)c(C(F)(F)C(F)(F)F)nn2C)ccc1Cl | ≥ 80%

Continue with the next compound.
Exercise: // pest or weed control at 200 ppm lookup, key: `Cn1nc(C(F)(F)C(F)(F)F)c(C(F)(F)F)c1NC(=O)c1ccc(C#N)c(NC(=O)c2ccncc2)n1`
Key: ≥ 80%
